test-system: F508delCFTR cell surface expression in CFBE41o-F508delCFTR-HRP cells (Homo sapiens, UniProt P13569, DEL508-508)
Construct: fused on or other part: Horseradish peroxidase (HRP) reporter inserted in the fourth exofacial (extracellular) loop of CFTR; expression is doxycycline-inducible
Sequence (P13569 with tags, fused parts or gaps DEL508-508 limits assumed): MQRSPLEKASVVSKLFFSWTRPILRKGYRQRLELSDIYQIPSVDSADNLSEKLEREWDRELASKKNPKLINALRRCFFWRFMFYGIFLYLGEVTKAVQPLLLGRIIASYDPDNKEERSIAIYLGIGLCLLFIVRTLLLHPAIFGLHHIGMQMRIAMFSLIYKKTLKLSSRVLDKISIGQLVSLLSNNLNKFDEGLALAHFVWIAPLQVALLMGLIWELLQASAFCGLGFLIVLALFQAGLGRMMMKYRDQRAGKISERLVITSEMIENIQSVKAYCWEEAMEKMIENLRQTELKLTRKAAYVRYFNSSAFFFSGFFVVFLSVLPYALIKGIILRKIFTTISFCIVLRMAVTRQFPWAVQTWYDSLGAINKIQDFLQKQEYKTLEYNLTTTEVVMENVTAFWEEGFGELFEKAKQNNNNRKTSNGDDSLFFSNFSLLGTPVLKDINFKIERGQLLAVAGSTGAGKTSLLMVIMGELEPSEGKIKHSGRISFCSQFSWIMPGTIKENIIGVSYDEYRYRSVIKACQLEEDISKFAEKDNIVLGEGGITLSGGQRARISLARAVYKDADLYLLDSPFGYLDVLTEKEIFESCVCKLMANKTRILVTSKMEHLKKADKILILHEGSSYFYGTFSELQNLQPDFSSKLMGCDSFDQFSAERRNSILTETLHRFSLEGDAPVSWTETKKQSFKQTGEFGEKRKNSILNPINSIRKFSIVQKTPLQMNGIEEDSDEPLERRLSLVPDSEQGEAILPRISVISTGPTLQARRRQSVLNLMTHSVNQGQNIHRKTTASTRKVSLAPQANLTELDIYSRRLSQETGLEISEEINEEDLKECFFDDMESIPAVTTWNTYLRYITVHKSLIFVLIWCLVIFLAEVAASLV
Sequence (P13569 919-1480 limits assumed, stated change not applied): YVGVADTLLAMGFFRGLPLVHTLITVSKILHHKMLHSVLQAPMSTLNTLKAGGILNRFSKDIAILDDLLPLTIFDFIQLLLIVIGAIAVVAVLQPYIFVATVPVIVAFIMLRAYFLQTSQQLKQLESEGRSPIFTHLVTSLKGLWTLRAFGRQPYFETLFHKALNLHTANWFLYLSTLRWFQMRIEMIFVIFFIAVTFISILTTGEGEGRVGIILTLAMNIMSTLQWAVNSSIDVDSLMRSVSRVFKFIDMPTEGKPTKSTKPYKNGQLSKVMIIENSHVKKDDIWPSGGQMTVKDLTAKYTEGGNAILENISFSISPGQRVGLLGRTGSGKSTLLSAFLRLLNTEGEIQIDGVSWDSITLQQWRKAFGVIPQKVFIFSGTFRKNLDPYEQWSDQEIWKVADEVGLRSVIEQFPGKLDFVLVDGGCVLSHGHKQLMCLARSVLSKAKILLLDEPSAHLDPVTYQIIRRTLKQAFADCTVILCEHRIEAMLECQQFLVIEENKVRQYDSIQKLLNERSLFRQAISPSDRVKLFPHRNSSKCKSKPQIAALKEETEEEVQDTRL
test-name: Cell Surface Expression-Horse Radish Peroxidase (CSE-HRP) Assay
test-context: CFBE41o-F508delCFTR-HRP cells, 18-24 hours at 33° C., 8-point curve, highest concentration 20 μM
Procedure: Cell Surface Expression-Horse Radish Peroxidase (CSE-HRP) Assay: A cellular assay for measuring the F508delCFTR cell surface expression after correction with test compounds was developed in human lung derived epithelial cell line (CFBE41o-) (Veit G et al, (2012) Mol Biol Cell. 23(21): 4188-4202). […] The raw counts from the experiment are analyzed using Accelrys® Assay Explorer v3.3. […]
Please respond with reported pEC50 for every item in the list.
// pEC50 is dimensionless: -log10 of concentration (M)

query: Need pEC50, item "Cc1ccc(NC(=O)[C@@]2(C)COc3cc4c(cc32)OC(F)(F)O4)nc1-c1cc(C(=O)O)cs1"
result: 6.34

query: Please answer likewise for "COc1ccc2c(c1)O[C@@H](c1ccc(C(=O)Nc3ccccc3O)cn1)C[C@H]2NC(=O)[C@@]1(C)COc2cc3c(cc21)OC(F)(F)O3"
result: 8.00

query: Please answer likewise for "COc1ccc2c(c1)O[C@@H](c1ccc(C(=O)NC(C)(C)CO)cn1)C[C@H]2NC(=O)[C@@]1(C)COc2cc3c(cc21)OC(F)(F)O3"
result: 7.52

query: Please answer likewise for "COc1ccc2c(c1)O[C@@H](c1ccc(C(=O)N3CCC(O)CC3)cn1)C[C@H]2NC(=O)[C@@]1(C)COc2cc3c(cc21)OC(F)(F)O3"
result: 7.52

query: Please answer likewise for "C[C@]1(C(=O)Nc2ccc(Cl)c(-c3cccc(C(=O)O)c3)n2)COc2cc3c(cc21)OC(F)(F)O3"
result: 6.23

query: Please answer likewise for "C[C@]1(C(=O)N[C@@H]2C[C@H]([C@H]3CC[C@H](C(=O)N4C[C@H](O)[C@@H](O)C4)CC3)Oc3cc(OC(F)(F)F)ccc32)COc2cc3c(cc21)OC(F)(F)O3"
result: 7.22
